meta.source: patent US20100331357A1

- Assay Procedure: Saturation solubility, shaken 18 hours at 5° C., filtered, HPLC
- Assay type: physicochemical
- Reported Conditions: pH 4, aqueous with cosolvent or surfactant or cyclodextrin, thermodynamic from solid, 30 w/v % Sulfobutyl ether-β-cyclodextrin sodium salt, 40 mM Citric acid, NaOH, as free form
Endpoint Label: solubility at 18 h (mg/mL)

Compound: CCS(=O)(=O)c1cccc(-c2cc(C(=O)NC3CCN(C)CC3)c(C)c3[nH]c4ncc(C)cc4c23)c1.Cl [compound A1 hydrochloride]
Endpoint Unit: mg/mL
Value Reported: 49.9

###

- Assay Procedure: Saturation solubility, shaken 18 hours at 5° C., filtered, HPLC
- Type: physicochemical
- Reported Conditions: pH 4, aqueous with cosolvent or surfactant or cyclodextrin, thermodynamic from solid, 20 w/v % Sulfobutyl ether-β-cyclodextrin sodium salt, 40 mM Citric acid, NaOH, as free form
Endpoint Label: solubility at 18 h (mg/mL)

Molecule: CCS(=O)(=O)c1cccc(-c2cc(C(=O)NC3CCN(C)CC3)c(C)c3[nH]c4ncc(C)cc4c23)c1.Cl [compound A1 hydrochloride]
Endpoint Label: solubility at 18 h
Value Reported: 43.6

###

- Assay Procedure: Solubility by eye observation with stepwise addition of solution
- Assay type: physicochemical
- Reported Conditions: 10 w/v % Polysorbate 20 in water for injection, aqueous with cosolvent or surfactant or cyclodextrin, thermodynamic from solid

Compound: CCS(=O)(=O)c1cccc(-c2cc(C(=O)NC3CCN(C)CC3)c(C)c3[nH]c4ncc(C)cc4c23)c1.Cl [compound A1 hydrochloride]
solubility: ~1800 µg/mL

###

- Assay Procedure: Saturation solubility, shaken 18 hours at 25° C., filtered, HPLC
- Assay type: physicochemical
- Reported Conditions: aqueous with cosolvent or surfactant or cyclodextrin, thermodynamic from solid, 5 w/v % Sulfobutyl ether-β-cyclodextrin sodium salt (Captisol, research grade), 40 mM Citric acid, HCl, pH 2.5, as free form

Compound: CCS(=O)(=O)c1cccc(-c2cc(C(=O)NC3CCN(C)CC3)c(C)c3[nH]c4ncc(C)cc4c23)c1.Cl [compound A1 hydrochloride]
Endpoint Unit: mg/mL
solubility at 18 h: 29.2

###

- Assay Procedure: Saturation solubility, shaken 18 hours at 5° C., filtered, HPLC
- Format: physicochemical
- Reported Conditions: citric acid solution in water for injection, pH 4, aqueous buffer, thermodynamic from solid, 40 mM Citric acid, water for injection, NaOH, as free form
Endpoint Label: solubility at 18 h

Molecule: CCS(=O)(=O)c1cccc(-c2cc(C(=O)NC3CCN(C)CC3)c(C)c3[nH]c4ncc(C)cc4c23)c1.Cl [compound A1 hydrochloride]
Value Reported: 100 µg/mL

###

- Assay Procedure: Solubility by eye observation with stepwise addition of solution
- Assay type: physicochemical
- Reported Conditions: citric acid buffer solution, pH 2, aqueous buffer, thermodynamic from solid, 100 mM Citric acid buffer solution pH 2
Endpoint Label: solubility

Molecule: CCS(=O)(=O)c1cccc(-c2cc(C(=O)NC3CCN(C)CC3)c(C)c3[nH]c4ncc(C)cc4c23)c1.Cl [compound A1 hydrochloride]
Endpoint Label: solubility
Value Reported: ~2100 µg/mL

###

- Assay Procedure: Saturation solubility, shaken 18 hours at 25° C., filtered, HPLC
- Assay type: physicochemical
- Reported Conditions: aqueous with cosolvent or surfactant or cyclodextrin, thermodynamic from solid, 5 w/v % Sulfobutyl ether-β-cyclodextrin sodium salt (Captisol, research grade), 40 mM Citric acid, NaOH, pH 5, as free form

Compound: CCS(=O)(=O)c1cccc(-c2cc(C(=O)NC3CCN(C)CC3)c(C)c3[nH]c4ncc(C)cc4c23)c1.Cl [compound A1 hydrochloride]
solubility at 18 h, mg/mL: 22.9

###

- Assay Procedure: Solubility by eye observation with stepwise addition of solution
- Type: physicochemical
- Reported Conditions: soybean oil, oil or lipid, thermodynamic from solid, 100 w/v % Soybean oil

Molecule: CCS(=O)(=O)c1cccc(-c2cc(C(=O)NC3CCN(C)CC3)c(C)c3[nH]c4ncc(C)cc4c23)c1.Cl [compound A1 hydrochloride]
solubility: < 1200 µg/mL

###

- Assay Procedure: Saturation solubility, shaken 18 hours at 25° C., filtered, HPLC
- Type: physicochemical
- Reported Conditions: citric acid solution in water for injection, aqueous buffer, thermodynamic from solid, 40 mM Citric acid, water for injection, NaOH, pH 4, as free form

Molecule: CCS(=O)(=O)c1cccc(-c2cc(C(=O)NC3CCN(C)CC3)c(C)c3[nH]c4ncc(C)cc4c23)c1.Cl [compound A1 hydrochloride]
solubility at 18 h / µg/mL: 300

###

- Assay Procedure: Solubility by eye observation with stepwise addition of solution
- Assay type: physicochemical
- Reported Conditions: citric acid buffer solution, pH 7, aqueous buffer, thermodynamic from solid, 100 mM Citric acid buffer solution pH 7
- Experimental: Each of the solutions (0.1 mL) shown in Table 1 was added to compound A1 hydrochloride (about 2 mg), and solubility was confirmed with eye observation. […] The concentration of the compound A1 hydrochloride determined from the total amount of the solution added up to the time point at which insoluble materials were not recognized, was taken as the solubility. […]
Endpoint Label: solubility

Molecule: CCS(=O)(=O)c1cccc(-c2cc(C(=O)NC3CCN(C)CC3)c(C)c3[nH]c4ncc(C)cc4c23)c1.Cl [compound A1 hydrochloride]
Value Reported: < 1200 µg/mL

###

- Assay Procedure: Solubility by eye observation with stepwise addition of solution
- Format: physicochemical
- Reported Conditions: 5 w/v % glucose in water for injection, saline or isotonic, thermodynamic from solid
Endpoint Label: solubility

Molecule: CCS(=O)(=O)c1cccc(-c2cc(C(=O)NC3CCN(C)CC3)c(C)c3[nH]c4ncc(C)cc4c23)c1.Cl [compound A1 hydrochloride]
Endpoint Label: solubility
Value Reported: ~1300 µg/mL

###

- Assay Procedure: Saturation solubility, shaken 18 hours at 5° C., filtered, HPLC
- Format: physicochemical
- Reported Conditions: pH 4, aqueous with cosolvent or surfactant or cyclodextrin, thermodynamic from solid, 2.5 w/v % Sulfobutyl ether-β-cyclodextrin sodium salt, 40 mM Citric acid, NaOH, as free form
Endpoint Label: solubility at 18 h (mg/mL)

Molecule: CCS(=O)(=O)c1cccc(-c2cc(C(=O)NC3CCN(C)CC3)c(C)c3[nH]c4ncc(C)cc4c23)c1.Cl [compound A1 hydrochloride]
Endpoint Unit: mg/mL
Value Reported: 13

###

- Assay Procedure: Solubility by eye observation with stepwise addition of solution
- Assay type: physicochemical
- Reported Conditions: 10 w/v % sucrose in water for injection, saline or isotonic, thermodynamic from solid
Endpoint Label: solubility

Molecule: CCS(=O)(=O)c1cccc(-c2cc(C(=O)NC3CCN(C)CC3)c(C)c3[nH]c4ncc(C)cc4c23)c1.Cl [compound A1 hydrochloride]
Value Reported: ~1200 µg/mL

###

- Assay Procedure: Solubility by eye observation with stepwise addition of solution
- Type: physicochemical
- Reported Conditions: citric acid buffer solution, pH 9, aqueous buffer, thermodynamic from solid, 100 mM Citric acid buffer solution pH 9

Compound: CCS(=O)(=O)c1cccc(-c2cc(C(=O)NC3CCN(C)CC3)c(C)c3[nH]c4ncc(C)cc4c23)c1.Cl [compound A1 hydrochloride]
solubility: < 1200 µg/mL

###

- Assay Procedure: Saturation solubility, shaken 18 hours at 5° C., filtered, HPLC
- Assay type: physicochemical
- Reported Conditions: pH 4, aqueous with cosolvent or surfactant or cyclodextrin, thermodynamic from solid, 10 w/v % Sulfobutyl ether-β-cyclodextrin sodium salt, 40 mM Citric acid, NaOH, as free form
- Procedure: To each of the various solutions shown in Table 6, compound A1 hydrochloride was added in an amount exceeding the saturation concentration, and the mixture was shaken for 18 hours at 5° C.
Endpoint Label: solubility at 18 h (mg/mL)

Compound: CCS(=O)(=O)c1cccc(-c2cc(C(=O)NC3CCN(C)CC3)c(C)c3[nH]c4ncc(C)cc4c23)c1.Cl [compound A1 hydrochloride]
Value Reported: 32.8

###

- Assay Procedure: Solubility by eye observation with stepwise addition of solution
- Assay type: physicochemical
- Reported Conditions: cyclodextrin derivative solutions, aqueous with cosolvent or surfactant or cyclodextrin, thermodynamic from solid, all cyclodextrin derivative solutions shown in Table 4

Compound: CCS(=O)(=O)c1cccc(-c2cc(C(=O)NC3CCN(C)CC3)c(C)c3[nH]c4ncc(C)cc4c23)c1.Cl [compound A1 hydrochloride]
solubility: ≥ 8000 µg/mL

###

- Assay Procedure: Saturation solubility, shaken 18 hours at 5° C., filtered, HPLC
- Type: physicochemical
- Reported Conditions: pH 4, aqueous with cosolvent or surfactant or cyclodextrin, thermodynamic from solid, 7.5 w/v % Sulfobutyl ether-β-cyclodextrin sodium salt, 40 mM Citric acid, NaOH, as free form
Endpoint Label: solubility at 18 h (mg/mL)

Molecule: CCS(=O)(=O)c1cccc(-c2cc(C(=O)NC3CCN(C)CC3)c(C)c3[nH]c4ncc(C)cc4c23)c1.Cl [compound A1 hydrochloride]
Value Reported: 27.6

###

- Assay Procedure: Solubility by eye observation with stepwise addition of solution
- Type: physicochemical
- Reported Conditions: polyethylene glycol 400, organic solvent or mixture, thermodynamic from solid, 100 w/v % Polyethylene glycol 400

Compound: CCS(=O)(=O)c1cccc(-c2cc(C(=O)NC3CCN(C)CC3)c(C)c3[nH]c4ncc(C)cc4c23)c1.Cl [compound A1 hydrochloride]
solubility: < 1300 µg/mL
